- TEST NAME: Tmax in Long Evans rat at 10 mg/kg, po administered as single dose
- Assay type: ADME, organism-based
- Set-up: dose 10 mg/kg, route oral
- TEST CONTEXT: in vivo
ENDPOINT LABEL: Tmax (min)
Give your result in min as a bare value.

Ask | Entry CN(C)C(=O)c1ccc(-c2ccc3c(c2)CCN(CCN2CCCC2)C3=O)cc1.Cl needs its Tmax filled in; supply it.
Reply | 18

====

- TEST NAME: Elimination half life in Long Evans rat at 2 mg/kg, iv administered as single bolus dose
- Assay type: ADME, organism-based
- Set-up: dose 2 mg/kg, route intravenous
- TEST CONTEXT: in vivo, read-out: beta t1/2 (converted)
ENDPOINT LABEL: half-life (min)
Give your result in min as a bare value.

Ask | Entry CN(C)C(=O)c1ccc(-c2ccc3c(c2)CCN(CCN2CCCC2)C3=O)cc1.Cl needs its half-life filled in; supply it.
Reply | 18

Data provenance: ChEMBL document CHEMBL2029265
